Origin of the recorded values: patent US10660877B2

Catalogue of pIC50 readings, one per entry.
# tested_system: human TLR8 (Homo sapiens (Human), UniProt Q9NR97)
# Sequence (Q9NR97 27-1041): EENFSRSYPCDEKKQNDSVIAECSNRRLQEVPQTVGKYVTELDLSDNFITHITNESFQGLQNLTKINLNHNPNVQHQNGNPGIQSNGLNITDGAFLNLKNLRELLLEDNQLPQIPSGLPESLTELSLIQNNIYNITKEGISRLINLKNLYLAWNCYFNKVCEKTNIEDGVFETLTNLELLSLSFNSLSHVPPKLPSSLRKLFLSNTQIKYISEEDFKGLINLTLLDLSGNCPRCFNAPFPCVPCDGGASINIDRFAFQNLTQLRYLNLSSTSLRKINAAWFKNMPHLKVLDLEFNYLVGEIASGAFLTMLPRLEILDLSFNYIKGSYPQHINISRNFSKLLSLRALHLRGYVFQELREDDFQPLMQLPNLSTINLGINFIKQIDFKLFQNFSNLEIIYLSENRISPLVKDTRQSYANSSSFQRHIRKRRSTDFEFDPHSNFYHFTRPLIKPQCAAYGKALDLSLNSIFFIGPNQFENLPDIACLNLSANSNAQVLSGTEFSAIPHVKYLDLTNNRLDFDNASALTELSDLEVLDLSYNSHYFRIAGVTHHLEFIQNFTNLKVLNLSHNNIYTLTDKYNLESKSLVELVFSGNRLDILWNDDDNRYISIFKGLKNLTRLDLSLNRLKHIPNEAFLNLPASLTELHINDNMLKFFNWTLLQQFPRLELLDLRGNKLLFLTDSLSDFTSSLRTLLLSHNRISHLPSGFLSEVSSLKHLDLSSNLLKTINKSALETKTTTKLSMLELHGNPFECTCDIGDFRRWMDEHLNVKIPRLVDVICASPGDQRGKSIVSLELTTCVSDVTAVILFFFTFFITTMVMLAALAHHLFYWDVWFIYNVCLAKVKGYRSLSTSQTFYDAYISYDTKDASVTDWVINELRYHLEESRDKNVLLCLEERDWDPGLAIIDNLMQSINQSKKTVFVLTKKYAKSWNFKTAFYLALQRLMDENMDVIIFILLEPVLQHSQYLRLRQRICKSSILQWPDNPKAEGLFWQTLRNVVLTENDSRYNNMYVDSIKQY
# assay_details: TLR8 inhibition reporter assay (HEK-Blue cells, SEAP reporter, R848 stimulation);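 also: compounds tested from 0.05 nM to 50 µM, 22 h at 37 °C, SEAP measured with HEK-Blue Detection, inhibition relative to agonist plus DMSO versus a known inhibitor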
# measurement_parameters: read-out: TLR8 IC50, HEK-Blue cells overexpressing human TLR8, R848 15.9 μM
pIC50: −log10 of the molar value.
recorded_metric: pIC50

INSERT INTO measurements (compound, observed_value) VALUES
  ('Cc1cc(-c2[nH]c3ccc(C4CCN(S(=O)(=O)C(C)C)CC4)cc3c2C(C)C)ccn1 [Example 544]', 6.61),
  ('Cc1cc(-c2[nH]c3ccc(C4CCN(C(=O)CNCCC(C)(C)C)CC4)cc3c2C(C)C)cc(C)n1 [Example 347]', 7.32),
  ('Cc1cc(-c2[nH]c3ccc(C4CCN(C(=O)CNC5CCC5)CC4)cc3c2C(C)C)cc(C)n1 [Example 334]', 8.12),
  ('CCc1c(-c2ccnc(C(=O)OC)c2)[nH]c2ccc(C3CCN(C4CCN(CC(C)C)CC4)CC3)cc12 [Example 762]', 7.84);

###

# tested_system: UniProt:Q9NR97
# assay_details: TLR8 inhibition reporter assay (HEK-Blue cells, SEAP reporter, R848 stimulation)
# measurement_parameters: read-out: TLR8 IC50, HEK-Blue cells, R848 15.9 μM
pIC50: −log10 of the molar value.
Just so you know, the groups by pIC50 go like this: one = under 7, two = from 7 up to 8, three = 8 and over

INSERT INTO measurements (molecule, group) VALUES
  ('Cc1cc(-c2[nH]c3ccc(C4CCN(Cc5cnc(C)[nH]5)CC4)cc3c2C(C)C)ccn1 [Example 821]', 'three'),
  ('Cc1cc(-c2[nH]c3ccc(C4CCN(C(=O)C(=O)N5CCN(C)CC5)CC4)cc3c2C(C)C)cc(C)n1 [Example 856]', 'two'),
  ('Cc1ncc(CN2CCC(c3ccc4[nH]c(-c5ccnc(N)c5)c(C(C)C)c4c3)CC2)[nH]1 [Example 818]', 'two'),
  ('Cc1cc(-c2[nH]c3ccc(C4CCN(c5cccnc5)CC4)cc3c2C(C)C)ccn1 [Example 847]', 'one'),
  ('Cc1cc(-c2[nH]c3ccc(C4CCN(CC(=O)O)CC4)cc3c2C(C)C)cc(C)n1 [Example 875]', 'one'),
  ('Cc1cc(-c2[nH]c3ccc(C4CCN(CC(C)(C)O)CC4)cc3c2C(C)C)c(C)cn1 [Example 851]', 'three'),
  ('Cc1cc(-c2[nH]c3cc(F)c(C4CCN(Cc5ncn(C)n5)CC4)cc3c2C(C)C)cc(C)n1 [Example 832]', 'two'),
  ('CCc1c(-c2ccnc(C)c2)[nH]c2ccc(C3CCN(C(=O)NC4CCN(C(=O)C(F)(F)F)CC4)CC3)cc12 [Example 846]', 'one'),
  ('Cc1cc(-c2[nH]c3ccc(C4CCN(CC(O)CO)CC4)cc3c2C(C)C)cc(C)n1 (stereo not shown) [Example 854]', 'three'),
  ('CCc1c(-c2ccnc(C)c2)[nH]c2ccc(C3CCN(CCC(F)(F)F)CC3)cc12 [Example 863]', 'two'),
  ('Cc1cc(-c2[nH]c3ccc(C4CCN(C(=O)C(=O)NCC5CCNCC5)CC4)cc3c2C(C)C)cc(C)n1 [Example 861]', 'two'),
  ('C=CC(C)(O)CN1CCC(c2ccc3[nH]c(-c4cc(C)nc(C)c4)c(C(C)C)c3c2)CC1 (stereo not shown) [Example 853]', 'three'),
  ('Cc1cc(-c2[nH]c3ccc(C4CCN(CC(O)C(C)C)CC4)cc3c2C(C)C)cc(C)n1 (stereo not shown) [Example 849]', 'three'),
  ('COC[C@H](O)CN1CCC(c2ccc3[nH]c(-c4cc(C)nc(C)c4)c(C(C)C)c3c2)CC1 [Example 852]', 'three'),
  ('Cc1cc(-c2[nH]c3cc(F)c(C4CCN(CC(=O)N(C)C)CC4)cc3c2C(C)C)c(C)cn1 [Example 835]', 'three'),
  ('Cc1cc(-c2[nH]c3cc(F)c(C4CCN(C5CC(C)OC(C)C5)CC4)cc3c2C(C)C)cc(C)n1 (stereo not shown) [Example 833]', 'two'),
  ('CNC(=O)C(=O)N1CCC(c2ccc3[nH]c(-c4ccnc(C)c4)c(C(C)C)c3c2)CC1 [Example 879]', 'one'),
  ('CC(C)c1c(-c2ccnc(N)c2)[nH]c2ccc(C3CCN(Cc4cnc[nH]4)CC3)cc12 [Example 817]', 'two'),
  ('CC(=O)N1CCC(N2CCC(c3ccc4[nH]c(-c5ccnc(C)c5)c(C(C)C)c4c3)CC2)CC1 [Example 827]', 'three'),
  ('CC(C)c1c(-c2ccnc(N)c2)[nH]c2ccc(C3CCN(C(=O)C4CCNCC4)CC3)cc12 [Example 819]', 'one'),
  ('CCc1c(-c2ccnc(C)c2)[nH]c2ccc(C3CCN(CC(=O)O)CC3)cc12 [Example 876]', 'one'),
  ('Cc1cc(-c2[nH]c3ccc(C4CCN(CC5CC5)CC4)cc3c2C(C)C)c(C)cn1 [Example 871]', 'three'),
  ('Cc1cc(-c2[nH]c3ccc(C4CCN(CC(C)(C)O)CC4)cc3c2C(C)C)cc(C)n1 [Example 848]', 'three'),
  ('CC(=O)N1CCC(c2ccc3[nH]c(-c4ccnc(C)c4)c(C(C)C)c3c2)CC1 [Example 826]', 'one'),
  ('CCc1c(-c2ccncc2)[nH]c2ccc(C3CCN(Cc4cnc(Nc5ccccn5)s4)CC3)cc12 [Example 822]', 'one');
